system: MS2 coat protein; assay: apparent Kd, MS2 coat protein; higher = weaker binding; RNA-MaP array; FMN 200 µM where present; details: ligand present: flavin mononucleotide; designed as: ON switch for flavin mononucleotide
TEST_READOUT: apparent Kd (nM)

> print(dat)
                              input.sequence       test.system  endpoint.unit  value.observed
 1  CUAUAGAUAUGAGGAUAUGUAUAUCCAACAUGAGGAUCACCCAUGUUGAUGAUCACGUAUGUAAAGCAGAAGGCAUAUCUAUAG  MS2 coat protein             nM            6.41
 2  GUGCCUUGGGAGAAGGCCCAAUGCAAAGCAUCGGGAGGAUAUUCAUAUAAUAAAUAAACAUGAGGAUCACCCAUGUGGCACAAA  MS2 coat protein             nM              33
 3  UCAUCUUGUCGAGGAUAUAUUAACAUGACAUGAGACACAUGAGGAUCACCCAUGUAUUUUUUUUUAUAGAAGGCGACUAUAUGU  MS2 coat protein             nM            52.9
 4  GUACCUUAUGAGAAGGCGAUCAUGAAACAUGAUCGAGGAUAUCAUGUAAACAUGAGGAUCACCCAUGUAUGGGUAUUAUGGUAC  MS2 coat protein             nM            25.6
 5  GGUCGUCACAUUAACAUGAGGAUCACCCAUGUCAAAAGACAUGAGGAUAUGCAUCCUAAUUGGAUGCAGAAGGCAUGGACGACC  MS2 coat protein             nM            32.7
 6  AAUAAUUAGUAAGGAUAUACUAGUGGUUAGCUUGUAGAAGGUACAGUCUUAUGUAUAACAAAUUAACAUGAGGAUCACCCAUGU  MS2 coat protein             nM            8.19
 7  AACAUGAGGAUCACCCAUGUACGCUGUAAUUACUCGCGUUGGCAGGAUAUGGGUUGGCUUCCGUCCCAGAAGGGUCAAGAUAAA  MS2 coat protein             nM             105
 8  UGGUACUAGGGAGGAUAUGGGAAGAUACAUGAGGAUCACCCAUGUUUAAGAAUGCCGAGAGGUAACUAGAAGGCCCUAGUACCU  MS2 coat protein             nM            15.1
 9  AGUAAGAUGCAGAAGGUGUCAGCGAGAGCUGCGACAUGAGGAUCACCCAUGUACACGUGAGUGUACAAGGAUAUGCAUCUUACA  MS2 coat protein             nM             431
10  GUCGGAAACGACAAAAGUAUGGAUCCAGAAGGCAUGACACAUGAGGAUCACCCAUGUCUAAGACAUGAGGAUAUGGAUCCAUAC  MS2 coat protein             nM            3.67
11  GUUUGUUAUUAGAAGGUGCCAGCGAGAGCUGCACAUGAGGAUCACCCAUGUUGUCGGUGACGACGCAAGGAUAUGGUGGUGGAU  MS2 coat protein             nM             169
12  GUAGCAUAAUCAGGAUAUUCAGCGAAUAGAUUGACAUGAGGAUCACCCAUGUGGCGAAAGCCUCGGGAGAAGGGAUAAUGCUAC  MS2 coat protein             nM            76.8
13  CGCGAAAACAUAGGAUAUUGUUACAUGAGGAUCACCCAUGUCAACCAUUUAUCUCAAAUUGUUGACAAGAAGGAUGAGGUCGCG  MS2 coat protein             nM            28.4
14  GGGUACAUCGGAGGAUAUCAUGUGUAAACAUGAGGAUCACCCAUGUCGUACGAGAGUACGGAGAUUGAGAAGGCCGAUGUACCG  MS2 coat protein             nM            16.6

----------
tested on: MS2 coat protein; assay: apparent Kd, MS2 coat protein; higher = weaker binding; RNA-MaP array; FMN 200 µM where present; details: designed as: OFF switch for flavin mononucleotide; no ligand
TEST_READOUT: apparent Kd (nM)

> print(dat)
                             input.sequence  value.observed
1  AACUAGCUAGGAUAUACAUGAGGAUCACCCAUGUAAAAAAAAAAAAAAAGAUCAAAAUGUAGAAGGAGCUAGUA             106
2  GAUCCUUCUGUUAGGAUAUGCUUUGGGCUUUCGCAGCAGAAGGAACAUGAGGAUCACCCAUGUCCGAUGCCGUC            77.5
3  GUAGAGUAGUGAGGAUAUACGAGAUCGAUAGAUCGGCGAUCCAUAUAUACAUGAGGAUCACCCAUGUAGAAGGCACUUCUCUAC            6.99
4  UGUGUCCGUAGAGGAUAUCCGGGCGUUCGGCUAGGAGAAGGCUGCGACACAUGAGGAUCACCCAUGUAGGUUGUGUCUCUCUAC            51.6
5  AAUAUGAGCUGGUAUAAACCCGAAACAUGAGGAUCACCCAUGUAGGAUAUCAGCACGAUAAGUGCUGAGAAGGACAUCCAGCUC            14.5
6  UUAUUUUUACAGAAGGUUUAAUAAUAUGUAUGAGAAGGAUAUGUAACAUGAGGAUCACCCAUGUUUUAUUUAUAUGAGGUUCAU            10.8
7  AAAACUGGAGGAUAUACAUGAGGAUCACCCAUGUGUGGGUAGGCUGUGUCGGCGUCAGGUAGAAGGCCACAAAA            92.3

----------
system: MS2 coat protein; test: apparent Kd, MS2 coat protein; higher = weaker binding; RNA-MaP array; conditions: designed as: ON switch for flavin mononucleotide; no ligand
Please use MET whenever apparent Kd is not below 20 nM, and NOT MET whenever it is.

> print(dat)
                              input.sequence      cat
 1  UGAGUGAAGGAGAAGGGUCUUCAGGAAAUACGGAAAUAACAUGAGGAUCACCCAUGUUCAAGCAGACAGGAUAUCCAAUGUUGG  NOT MET
 2  AAUGCGAGACUAGGAUAUUGCAUUCAACUCGUGCAAGAAGGAGUCGUUUCAUACAUGAGGAUCACCCAUGUCCAUAUUUCUCAA  NOT MET
 3  UCGGAAAAGAAAGGAUAUCGCAUGGAUUGUUGUCGAGAAGGUUCAAAUCGACAUGAGGAUCACCCAUGUCGAGUCCAUACUCCU      MET
 4  AAUACAAAACAUGAGGAUCACCCAUGUCCCGAGACUAAACUAAGAAGGUGACCAACCAAAAGGGUCAAGGAUAUUAGGAUCUAU      MET
 5  CAAUAUUUCCAGAAGGGCAAGCUAACACCAACUGCAGGAUAUGGUUUCAUACAACAUGAGGAUCACCCAUGUGGCACAGGUUCC  NOT MET
 6  GUGCAAAACCAGAAGGGACAUUAAAGGGUAAAGUCAGGAUAUGGCACAUGAGGAUCACCCAUGUAGACUAGACGCGUUAUUUUC  NOT MET
 7  CGUUCAGUCCAGCGGUUACAUGAGGAUCACCCAUGUUUAGAGAGAAGGGUUGGCACCAGGAUGUAACAGGAUAUCUCGCUUACG      MET
 8  AGAAGCUAAUCCGGCUCAUACAUGAGGAUCACCCAUGUUUUCAGAAGGGAGUCCGUCGCACCGACUCAGGAUAUGAUUCAAGAA  NOT MET
 9  AAUGACAUGAGGAUCACCCAUGUCCAUCUAAGCUCGGGUCUGCAGGAUAUUCCCGUGGGAUUAGGGAAGAAGGGCAGUGAUUGU  NOT MET
10  CGCGGAACAUGAGGAUCACCCAUGUUAUGUAACAGCAAACUAAGAAGGCGUUAUAUAAGUAUGGACGAGGAUAUUAGCUUGAGU      MET
11  GGAAAGUCUGAGAAGGGAUGAAGACAUGAGGAUCACCCAUGUGAAGGCCACUGGCUCCACAAGUAUCAGGAUAUCAGCAUAGCG      MET
12  AGAGUUAUUGAGAAGGAAACAUUGACAUGAGGAUCACCCAUGUACUUGGCUAAGGAGCCGAGUGUUUAGGAUAUCAUUCAGAUA      MET
13  AAAUUCGGGAUCUAGGAUAUGUGCGUUUACACAUGAGGAUCACCCAUGUCUCACAGCCGUUUACCACAGAAGGAGAAACGACCUUA      MET
14  UUACAUACCUUAGGAUAUCAUCGUAGUAGGGCAAUAUAACAUGAGGAUCACCCAUGUCUCGUGCGUGAGAAGGAAGAACGUCAU      MET
15  ACAUGAGGAUCACCCAUGUAAAUGAUAUGUCACCAUGAUGUUAGAAGGAAAGCGGAAAGUCAAUUUUAGGAUAUAAUGUAUUGA  NOT MET
16  UUGAGAGGACAGAAGGUUGGGCUCUUGAUCUACGCGCGCGACAUGAGGAUCACCCAUGUGCUUCCAAAGGAUAUGUCACUCGCA      MET
17  AAGACGAAGAAGAAGGGCAUACAUGAGGAUCACCCAUGUGAAAAUGUGCUGAAAGAACAUAAAUUGCAGGAUAUUCACACAAGU  NOT MET
18  GGUACUCUGUACUAACAUGAGGAUCACCCAUGUAGGCAAACUCAGGAUAUAUUGAACACACCUAGAUAGAAGGGAGUUCGUGAU  NOT MET
19  GGGCCCUUCUCAUAGGAUAUACUUUAUACCACAUGAGGAUCACCCAUGUAAACAUAAUUAAGAAAGUAGAAGGAUGACGAAAAUCG  NOT MET
20  AGGAUCCAGGAGAAGGCAACUGUAGUUUGGCAUUGAGGAUAUCCAAAGACCCGCUAGAUAGGAGCACAUGAGGAUCACCCAUGU      MET
21  AUCGGUAAAACUCAGGAUAUAGAAAUAGACACAUGAGGAUCACCCAUGUUAACUACACAAAGAAUCUAGAAGGGAGCAGGUGUCUA      MET
22  GGGAGAAAUGGAGGAUAUAUUAAAGCACAGCUGACAUGAGGAUCACCCAUGUGAAUUAAAGAUGCAUAGAAGGCCAAACUACAA  NOT MET
23  CACUGACAUGAGGAUCACCCAUGUAUGCUCGACCAAGGAUAUUGAUCAGACAAGCAUACGCAAGAAGGUGGUGAGA      MET
24  GUACCACUCAAGAAGGACCUAGUUCACUAACCUGUGACAUGAGGAUCACCCAUGUGGCUAUUGCGGUAGGAUAUUGAAGACCGG      MET
25  GCAACAUGUUCAGGAUAUACGCUACAAACUCGUGUAGAAGGGAAGGAUACAAUUACAUGAGGAUCACCCAUGUGUUAUCCGAUU      MET
26  UAACUCAAGUAACAGGAUAUGAGUGCGGAUACAUGAGGAUCACCCAUGUUGACGAUAACCGGACAACAGAAGGGUACCUAACUUGG      MET
27  UUAGUGGAACGGAAGGAUAUGAGCCACCCUACAUGAGGAUCACCCAUGUGAGCGUUGGCAGCGCAUCAGAAGGUCCUCCUACGAGU  NOT MET
28  UUCAUCAACACAGGAUAUUCCGUCACAUGAGGAUCACCCAUGUAGCGCGUAGAUUACGGGCUUUCGAAGAAGGGUGUAAAGUCC      MET
